Data credit: the supplement of paper PMC10724198

Measured protein stability index of individual entries
- Test system: Saccharomyces cerevisiae
- MEASUREMENT_NOTES: protein stability index of tFT-peptide fusion (C-terminal peptide) (PSI (0-1 scale)); higher = more stable (slower turnover)
- CONDITION_NOTES: genetic background: cdc53-1; temperature: 37 C
MEASUREMENT_NAME: protein stability index

• TVLGRDFALSVC = 0.492
• VYLVLRCGSVLV = 0.56
• GTSDLIALLMLT = 0.728
• CPPPCPLYMLLC = 0.614

----------
Measured protein stability index of individual entries
- Test system: Saccharomyces cerevisiae
- MEASUREMENT_NOTES: protein stability index of tFT-peptide fusion (C-terminal peptide) (PSI (0-1 scale)); higher = more stable (slower turnover)
- CONDITION_NOTES: genetic background: wild type; temperature: 30 C
MEASUREMENT_NAME: protein stability index

* ENVAKKEKITKK | 0.694
* VLSRVSMSLGSP | 0.767
* RGGWYLQKAITP | 0.716
* VHNIDLFVVCYI | 0.346
* PRPPPRRPDFGL | 0.825
* GVAISSGNHINH | 0.654
* CFGFAGVGSLSC | 0.752
* LPFSPLSLLAHP | 0.782

----------
- Tested on: Saccharomyces cerevisiae
- MEASUREMENT_NOTES: protein stability index of tFT-peptide fusion (C-terminal peptide) (PSI (0-1 scale)); higher = more stable (slower turnover)
- CONDITION_NOTES: genetic background: wild type; temperature: 30 C
MEASUREMENT_NAME: protein stability index

* PSLPPPFPPLRP | 0.704
* PPSPALPPSLPV | 0.682
* SPLPPPPRPPLP | 0.691
* CGGRKTPPPPRH | 0.688
* PSHVFSDCIAPP | 0.696
* VGELCGVGGRGG | 0.68
* RIVASTLKSYLT | 0.688
* SSPSFVVFPFVS | 0.685
* HVYDQLLSGAVA | 0.691
* PASPPPRTISSP | 0.704
* STAELSNSLIGR | 0.703
* PHPRPPLAPPLT | 0.688
* TWYYRYSCCQLP | 0.696

----------
- Tested on: Saccharomyces cerevisiae
- MEASUREMENT_NOTES: protein stability index of tFT-peptide fusion (C-terminal peptide) (PSI (0-1 scale)); higher = more stable (slower turnover)
- CONDITION_NOTES: genetic background: wild type; temperature: 30 C
Label T when protein stability index >= 0.7; otherwise F.

• VFKMIMFIASNE [STU1 C-terminal 12 aa] = F
• EDKGLLSCCTVM [YCP4 C-terminal 12 aa] = T
• GGFLSFGGGYDE [AIM25 C-terminal 12 aa] = T
• TGKDVMKGALGF [SRO7 C-terminal 12 aa] = F

----------
Measured protein stability index of individual entries
- Test system: Saccharomyces cerevisiae
- MEASUREMENT_NOTES: protein stability index of tFT-peptide fusion (C-terminal peptide) (PSI (0-1 scale)); higher = more stable (slower turnover)
- CONDITION_NOTES: genetic background: wild type; temperature: 30 C
MEASUREMENT_NAME: protein stability index

* PPPAPPPPPTFL | 0.688
* LNEGSDRTKNKK | 0.709
* LLLARDLAHPLI | 0.705
